Values compiled from paper PMC6528642.

- MEASUREMENT TARGET: Ino-1 (Corynebacterium glutamicum, UniProt Q8NLE6)
- Construct: His6-tagged (pXMJ19-His6-ino-1), homologous expression in C. glutamicum delta-ino-1, Ni-NTA
- Sequence (Q8NLE6 whole entry): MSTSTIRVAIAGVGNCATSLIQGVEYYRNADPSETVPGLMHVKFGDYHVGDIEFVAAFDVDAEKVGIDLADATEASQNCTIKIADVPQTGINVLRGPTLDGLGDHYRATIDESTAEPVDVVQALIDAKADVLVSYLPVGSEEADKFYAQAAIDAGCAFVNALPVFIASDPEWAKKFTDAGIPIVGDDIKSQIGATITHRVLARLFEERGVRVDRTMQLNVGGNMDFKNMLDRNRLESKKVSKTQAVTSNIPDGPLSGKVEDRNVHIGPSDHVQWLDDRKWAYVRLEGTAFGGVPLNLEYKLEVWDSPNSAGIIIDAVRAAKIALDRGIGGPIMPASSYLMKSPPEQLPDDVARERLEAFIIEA
- TEST NAME: intrinsic protein fluorescence quenching (Ex […] nm, Em […] nm)
- RUN CONDITIONS: read-out: apparent K D
MEASURED PARAMETER: Kd (µM)
Write down the numeric answer in µM and omit the unit.

Record request: Kd value, item "NC(=O)c1ccc[n+]([C@@H]2O[C@H](COP(=O)(O)OP(=O)(O)OC[C@H]3O[C@@H](n4cnc5c(N)ncnc54)[C@H](O)[C@@H]3O)[C@@H](O)[C@H]2O)c1"
4.7
